Test system: Aspergillus fumigatus
Assay: Antifungal activity against Aspergillus fumigatus MTCC 343 by agar streak dilution method
Format: functional
Can you tell me MIC for the items I'm about to list?
Give bare numbers, in µg/mL.

# count of solved cases: 4
O=C(CSc1nnc(Cn2cnc3ccccc32)o1)Nc1nc2ccc(Br)cc2s1	50
O=C(CSc1nnc(Cn2cnc3ccccc32)o1)Nc1nc2ccc(Cl)cc2s1	100
O=C(CSc1nnc(Cn2cnc3ccccc32)o1)Nc1nc2ccccc2s1	100
N#Cc1ccc2nc(NC(=O)CSc3nnc(Cn4cnc5ccccc54)o3)sc2c1	50

# return MIC for each item in the list
1. O=C(CSc1nnc(Cn2cnc3ccccc32)o1)Nc1nc2ccc(F)cc2s1
2. O=C(CSc1nnc(Cn2cnc3ccccc32)o1)Nc1nc2ccc([N+](=O)[O-])cc2s1
3. O=C(CSc1nnc(Cn2cnc3ccccc32)o1)Nc1nc2ccc(I)cc2s1
4. CC(=O)N1CCN(c2ccc(OCC3COC(Cn4ccnc4)(c4ccc(Cl)cc4Cl)O3)cc2)CC1 (stereo not given) [KETOCONAZOLE]
5. O=C(CSc1nnc(Cn2cnc3ccccc32)o1)Nc1ccc(I)cc1

result:
1. 25
2. 50
3. 100
4. 0.78
5. 100

query: Give MIC for `N#Cc1ccc(NC(=O)CSc2nnc(Cn3cnc4ccccc43)o2)cc1` tested on Aspergillus fumigatus.
result: 100

---

Test system: Aspergillus clavatus
Assay: Antifungal activity against Aspergillus clavatus MTCC 1323 at 100 ug/disc by paper disc diffusion technique
Format: functional
Conditions: read-out: IZ
measured property: zone of inhibition at 100 µg/disc (mm)
Give bare numbers, in mm.

CC(=O)Nc1ccc(NC(=O)CSc2nnc(Cn3cnc4ccccc43)o2)cc1	18
COc1ccc2nc(NC(=O)CSc3nnc(Cn4cnc5ccccc54)o3)sc2c1	22
N#Cc1ccc2nc(NC(=O)CSc3nnc(Cn4cnc5ccccc54)o3)sc2c1	18
CC(=O)N1CCN(c2ccc(OCC3COC(Cn4ccnc4)(c4ccc(Cl)cc4Cl)O3)cc2)CC1 (stereo not given)	31
O=C(CSc1nnc(Cn2cnc3ccccc32)o1)Nc1nc2ccc(Cl)cc2s1	15
CCOc1ccc2nc(NC(=O)CSc3nnc(Cn4cnc5ccccc54)o3)sc2c1	17

Give zone of inhibition at 100 µg/disc for each listed item.
1. O=C(CSc1nnc(Cn2cnc3ccccc32)o1)Nc1ccc([N+](=O)[O-])cc1
2. O=C(CSc1nnc(Cn2cnc3ccccc32)o1)Nc1nc2ccc(F)cc2s1

result:
24
21

---

I'd be grateful if you could share measured MIC for these entries.
System: Klebsiella pneumoniae
Experiment: Antibacterial activity against Klebsiella pneumoniae MTCC 109 by agar streak dilution method
Assay type: functional
Be sure to follow the number with its unit.

O=C(CSc1nnc(Cn2cnc3ccccc32)o1)Nc1nc2ccc(Br)cc2s1	100 µg/mL
CCOc1ccc(NC(=O)CSc2nnc(Cn3cnc4ccccc43)o2)cc1	100 µg/mL
O=C(CSc1nnc(Cn2cnc3ccccc32)o1)Nc1ccc(F)cc1	50 µg/mL
O=C(CSc1nnc(Cn2cnc3ccccc32)o1)Nc1nc2ccc([N+](=O)[O-])cc2s1	100 µg/mL
CC(=O)Nc1ccc2nc(NC(=O)CSc3nnc(Cn4cnc5ccccc54)o3)sc2c1	50 µg/mL

Batch lookup, MIC per entry.
1. CCOc1ccc2nc(NC(=O)CSc3nnc(Cn4cnc5ccccc54)o3)sc2c1
2. O=C(CSc1nnc(Cn2cnc3ccccc32)o1)Nc1nc2ccccc2s1

result:
["50 µg/mL", "100 µg/mL"]

Consider the following items and state reported MIC for each.
1. Cc1ccc(NC(=O)CSc2nnc(Cn3cnc4ccccc43)o2)cc1
2. N#Cc1ccc(NC(=O)CSc2nnc(Cn3cnc4ccccc43)o2)cc1
3. O=C(CSc1nnc(Cn2cnc3ccccc32)o1)Nc1ccccc1

result:
["100 µg/mL", "25 µg/mL", "100 µg/mL"]

---

System: Aspergillus fumigatus
Test: Antifungal activity against Aspergillus fumigatus MTCC 343 by agar streak dilution method
Assay type: functional
I'd be grateful if you could share measured MIC for these entries.
Note: a bare number is incomplete; add the unit.

Before answering, review these 10 worked examples.
O=C(CSc1nnc(Cn2cnc3ccccc32)o1)Nc1ccc(F)cc1	50 µg/mL
CC(=O)Nc1ccc(NC(=O)CSc2nnc(Cn3cnc4ccccc43)o2)cc1	100 µg/mL
O=C(CSc1nnc(Cn2cnc3ccccc32)o1)Nc1ccc(Cl)cc1	100 µg/mL
O=C(CSc1nnc(Cn2cnc3ccccc32)o1)Nc1ccc([N+](=O)[O-])cc1	100 µg/mL
COc1ccc2nc(NC(=O)CSc3nnc(Cn4cnc5ccccc54)o3)sc2c1	100 µg/mL
Cc1ccc(NC(=O)CSc2nnc(Cn3cnc4ccccc43)o2)cc1	100 µg/mL
Cc1ccc2nc(NC(=O)CSc3nnc(Cn4cnc5ccccc54)o3)sc2c1	100 µg/mL
CC(=O)Nc1ccc2nc(NC(=O)CSc3nnc(Cn4cnc5ccccc54)o3)sc2c1	100 µg/mL
O=C(CSc1nnc(Cn2cnc3ccccc32)o1)Nc1ccc(Br)cc1	25 µg/mL
CCOc1ccc(NC(=O)CSc2nnc(Cn3cnc4ccccc43)o2)cc1	100 µg/mL

Quick one: give me MIC for each item below, same order please.
1. COc1ccc(NC(=O)CSc2nnc(Cn3cnc4ccccc43)o2)cc1
2. O=C(CSc1nnc(Cn2cnc3ccccc32)o1)Nc1ccccc1
3. CCOc1ccc2nc(NC(=O)CSc3nnc(Cn4cnc5ccccc54)o3)sc2c1

result:
100 µg/mL
100 µg/mL
100 µg/mL

---

System: Klebsiella pneumoniae
Test: Antibacterial activity against Klebsiella pneumoniae MTCC 109 by agar streak dilution method
Type: functional
Kindly supply the reported MIC values for the records listed here.
Numbers only, in µg/mL.

Previously resolved entries follow.
O=C(CSc1nnc(Cn2cnc3ccccc32)o1)Nc1ccc(Br)cc1	50
CC(=O)Nc1ccc(NC(=O)CSc2nnc(Cn3cnc4ccccc43)o2)cc1	100

Then there is this compound:
query: Give me measured MIC, please, for this compound: `O=C(CSc1nnc(Cn2cnc3ccccc32)o1)Nc1ccc([N+](=O)[O-])cc1`
result: 100

---

Please respond with reported MIC for every item in the list.
Test system: Aspergillus clavatus
Test: Antifungal activity against Aspergillus clavatus MTCC 1323 by agar streak dilution method
Type: functional
Numbers only, in µg/mL.

Field: example entries. Status: answers known.
COc1ccc(NC(=O)CSc2nnc(Cn3cnc4ccccc43)o2)cc1	100
O=C(CSc1nnc(Cn2cnc3ccccc32)o1)Nc1ccc(Cl)cc1	100
O=C(CSc1nnc(Cn2cnc3ccccc32)o1)Nc1ccccc1	100
O=C(CSc1nnc(Cn2cnc3ccccc32)o1)Nc1ccc(Br)cc1	50
N#Cc1ccc2nc(NC(=O)CSc3nnc(Cn4cnc5ccccc54)o3)sc2c1	100
O=C(CSc1nnc(Cn2cnc3ccccc32)o1)Nc1ccc(I)cc1	100
O=C(CSc1nnc(Cn2cnc3ccccc32)o1)Nc1nc2ccc(I)cc2s1	100
O=C(CSc1nnc(Cn2cnc3ccccc32)o1)Nc1nc2ccc(Cl)cc2s1	100

Can you give me MIC for all of these, one by one?
1. CC(=O)N1CCN(c2ccc(OCC3COC(Cn4ccnc4)(c4ccc(Cl)cc4Cl)O3)cc2)CC1 (stereo not drawn)
2. O=C(CSc1nnc(Cn2cnc3ccccc32)o1)Nc1ccc([N+](=O)[O-])cc1

result:
1. 0.78
2. 50

---

Tested on: Klebsiella pneumoniae
Test: Antibacterial activity against Klebsiella pneumoniae MTCC 109 by agar streak dilution method
Format: functional
measured property: MIC (µg/mL)
Numbers only, in µg/mL.

Some compounds with recorded MIC:
O=C(CSc1nnc(Cn2cnc3ccccc32)o1)Nc1nc2ccc(Cl)cc2s1	50
COc1ccc2nc(NC(=O)CSc3nnc(Cn4cnc5ccccc54)o3)sc2c1	50
O=C(CSc1nnc(Cn2cnc3ccccc32)o1)Nc1nc2ccc(F)cc2s1	50
COc1ccc(NC(=O)CSc2nnc(Cn3cnc4ccccc43)o2)cc1	100

Provide reported MIC for each item, in the same order as listed.
1. Cc1ccc2nc(NC(=O)CSc3nnc(Cn4cnc5ccccc54)o3)sc2c1
2. O=C(CSc1nnc(Cn2cnc3ccccc32)o1)Nc1ccc(Cl)cc1
3. O=C(CSc1nnc(Cn2cnc3ccccc32)o1)Nc1nc2ccc(I)cc2s1
4. N#Cc1ccc2nc(NC(=O)CSc3nnc(Cn4cnc5ccccc54)o3)sc2c1
5. O=C(CSc1nnc(Cn2cnc3ccccc32)o1)Nc1ccc(I)cc1
6. O=C(O)c1cn(C2CC2)c2cc(N3CCNCC3)c(F)cc2c1=O [CIPROFLOXACIN]

result:
[100, 50, 100, 25, 50, 0.78]

---

Test system: Pseudomonas aeruginosa
Test: Antibacterial activity against Pseudomonas aeruginosa MTCC 741 at 100 ug/disc by paper disc diffusion technique
Format: functional
Conditions: read-out: IZ
Classification field: T = zone of inhibition at 100 µg/disc at or over 20 mm; F = zone of inhibition at 100 µg/disc under 20 mm.

N#Cc1ccc(NC(=O)CSc2nnc(Cn3cnc4ccccc43)o2)cc1	T

query: Test whether the compound `COc1ccc2nc(NC(=O)CSc3nnc(Cn4cnc5ccccc54)o3)sc2c1` records zone of inhibition at 100 µg/disc of 20 mm or higher.
result: F

query: State whether the measured zone of inhibition at 100 µg/disc reaches 20 mm, counting equality as reaching it, for `O=C(CSc1nnc(Cn2cnc3ccccc32)o1)Nc1nc2ccccc2s1`
result: F

query: # check: zone of inhibition at 100 µg/disc of `CC(=O)Nc1ccc(NC(=O)CSc2nnc(Cn3cnc4ccccc43)o2)cc1` is greater than or equal to 20 mm
result: F

query: In plain terms: is recorded zone of inhibition at 100 µg/disc at least 20 mm for `CC(=O)Nc1ccc2nc(NC(=O)CSc3nnc(Cn4cnc5ccccc54)o3)sc2c1` ?
result: F

query: Test whether the compound `COc1ccc(NC(=O)CSc2nnc(Cn3cnc4ccccc43)o2)cc1` records zone of inhibition at 100 µg/disc of 20 mm or higher.
result: T

query: Is zone of inhibition at 100 µg/disc at least 20 mm? Consider `O=C(CSc1nnc(Cn2cnc3ccccc32)o1)Nc1ccc(F)cc1`
result: T

query: Is reported zone of inhibition at 100 µg/disc greater than or equal to 20 mm here: `O=C(CSc1nnc(Cn2cnc3ccccc32)o1)Nc1nc2ccc(Br)cc2s1`
result: T

query: Dear colleague, could you confirm whether O=C(O)c1cn(C2CC2)c2cc(N3CCNCC3)c(F)cc2c1=O [CIPROFLOXACIN] has zone of inhibition at 100 µg/disc at or above 20 mm?
result: T
